For each record, write down the corresponding ELISA OD450.
# Measurement target: T1, IL-9-His recombinant protein (UniProt P15248 19-144)
# T1 construct: range 19-144; used as coating antigen in the ELISAs; also called IL9 (19-144)-His; not shown: His tag, C-terminal by the vector name
# T1 sequence (P15248 19-144 limits assumed, form in doubt): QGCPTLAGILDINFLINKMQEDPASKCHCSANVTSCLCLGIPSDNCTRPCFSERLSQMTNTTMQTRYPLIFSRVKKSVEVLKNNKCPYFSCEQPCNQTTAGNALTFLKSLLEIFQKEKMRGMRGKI
# Test name: ELISA on IL-9-His, 293F culture supernatant, antibody concentration 1 µg/mL
Answers are plain numbers, in OD450.

The following binders have reported results that may help.
Binder: 29-B9-F5-B6 chimeric antibody (CA3) (antibody, V domains shown) VH: EVQLQESGAELMKPGASVKISCKATGYTFSSYWIEWVKQRPGHGLEWIGQILPGSGSNNYNERFKGKATFTADTSSNTAYMQLSSLTSEDSAVYYCAREGNYGEAWFAYWGQGTLVTVSA VL: DILLTQSPATLSVTPGDSVSLSCRASQSISNNLHWYQQKSHESPRLLIKYASQSMSGIPSRFSGSGSGTDFTLSINSVETEDFGMYFCQQSNSWPLTFGAGTKLELK
Measurement: 2.71
//
Binder: 38-D8-C7-G9 chimeric antibody (CA1) (antibody, V domains shown, also called CA1 antibody; human-mouse chimeric antibody CA1) VH: EVQLKQSGAELMKPGASVKLSCKATGYTFTGYWIEWVKLRPGHGLEWIGEILPGSGSTNYNEEFKGKATFTADTSSNTAYMQLNSLTTEDSAIYYCARRTYYYGIPEDYWGQGTSVTVSS VL: DIVMTQSQKFMSTSVGDRVSVTCKASQNVGTNVAWHQQKPGQSPKPLIYSASYRYSGVPDRFTGSGSGTDFTLTISNVQSEDLAEYFCQQYNSYPLTFGAGTKLELK
Measurement: 2.43
//
Binder: 22-F2-E9-C8 chimeric antibody (CA4) (antibody, V domains shown) VH: EVQVVESGPGLVKPSQSLSLTCSVTGSSFTSGYYWNWIRQFPGNKLEWMGYIRYDGSNNYNPSLKNRISITRDTSKNQFFLKLNSVTSEDTATYYCASYGSSYDAMDYWGQGTSVTVSS VL: DIQLTQPPASLSASVGETVTITCRASENIDSYLAWYQQKQGKSPQLLVYAATLLADGVPSRFSGSGSGTQYSLKINSLQSEDVARYYCQHYYSTPWTFGGGTKLELK
Measurement: 2.63

## Task Answer with reported ELISA OD450 of 31-D6-B8-B8 chimeric antibody (CA2) (antibody, V domains shown) VH: EVQLKESGPGLVKPSQSLSLTCSVTGYSSTSGYYWNWIRQFPGNKLEWMGYIRYDGSSNHNPSLKNRISITRDTSKNQFFLKLNSVTTEDTATYYCASYGITYDAMDYWGQGTSVTVSS VL: DIQLTQPPASLSASVGETVTITCRASENIDSYLAWYQQKQGKSPQLLVYAATLLADGVPSRFSGSGSGTQYSLKINSLQSEDVARYYCQHYYSTPWTFGGGTKLELK
## Result 2.66

Where do these numbers come from? They come from patent US20250122278A1.
